Reported IC50 by item:
# System: acyl-CoA: cholesterol O-acyltransferase enzyme (ACAT)
# protocol notes: Inhibition of cellular ACAT (esterification of 3H-cholesterol taken up by cells)
# settings: ACAT inhibition
measurement kind: IC50 (µg/mL)

COc1c2occc2c(OC)c2c(=O)cc(CN3CCC(CCCC4CCN(Cc5cc(=O)c6c(OC)c7ccoc7c(OC)c6o5)CC4)CC3)oc12 [Compound I] = 4.2
COc1c2occc2c(OC)c2c(=O)cc(CN3CCC(CCC4CCN(Cc5cc(=O)c6c(OC)c7ccoc7c(OC)c6o5)CC4)CC3)oc12 [Compound Ia] = 0.8
COc1c2c(c(OC)c3c(=O)cc(CN4CCC(CCC5CCN(Cc6cc(=O)c7c(OC)c8c(c(OC)c7o6)OCC8)CC5)CC4)oc13)CCO2 [Compound V] = 3.0
COc1c2occc2c(OC)c2c(=O)nc(N3CCC(CCCC4CCN(c5nc(=O)c6c(OC)c7ccoc7c(OC)c6o5)CC4)CC3)oc12 [Compound II] = 1.8
